// reported pEC50 for each item listed
- measurement-notes: Antiviral activity against Bovine viral diarrhea virus 1-NADL infected in MDBK cells assessed as inhibition of virus-induced cytopathogenicity after 3 to 4 days by MTT assay
- Type: functional, cell-based
- assay-setup: Bovine viral diarrhea virus isolates and strains
pEC50: −log10 of the molar value.
measured-quantity: pEC50

compound: CCOC(=O)C(C)c1nc2c(Cl)c3ncccc3cc2[nH]c1=O (configuration not stated)
measured-quantity: pEC50
comparator: =
numeric-readout: 5.00

compound: Clc1c2ncccc2cc2nccnc12
measured-quantity: pEC50
comparator: <
numeric-readout: 5.19

compound: O=C(CCl)Cn1nnc2c(Cl)c3ncccc3cc21
measured-quantity: pEC50
comparator: <
numeric-readout: 4.28

compound: c1ccc(-c2ccc(-c3nc4cc5cccnc5cc4[nH]3)cc2)cc1
measured-quantity: pEC50
comparator: =
numeric-readout: 4.22

compound: CC(C)c1nc2c(Cl)c3ncccc3cc2[nH]c1=O
measured-quantity: pEC50
comparator: =
numeric-readout: 4.00

compound: Clc1ccc(-c2nc3cc4cccnc4cc3[nH]2)cc1Cl
measured-quantity: pEC50
comparator: <
numeric-readout: 4.00

compound: COc1ccccc1-c1nc2cc3cccnc3cc2[nH]1
measured-quantity: pEC50
comparator: ≤
numeric-readout: 4.96

compound: N#CCn1nnc2c(Cl)c3ncccc3cc21
measured-quantity: pEC50
comparator: =
numeric-readout: 4.64

compound: O=c1[nH]c2c(Cl)c3ncccc3cc2nc1-c1ccccc1
measured-quantity: pEC50
comparator: =
numeric-readout: 5.30

compound: O=[N+]([O-])c1ccc(-c2nc3cc4cccnc4cc3[nH]2)c2ccccc12
measured-quantity: pEC50
comparator: <
numeric-readout: 4.74

compound: CC(C)c1nc2cc3cccnc3c(Cl)c2[nH]c1=O
measured-quantity: pEC50
comparator: =
numeric-readout: 5.30

compound: c1ccc(-c2nc3cc4cccnc4cc3[nH]2)cc1
measured-quantity: pEC50
comparator: =
numeric-readout: 5.00

compound: Oc1ccnc2c(Cl)c3[nH]c(-c4ccccc4)nc3cc12
measured-quantity: pEC50
comparator: <
numeric-readout: 4.00

compound: Oc1ccnc2c(Cl)c3nccnc3cc12
measured-quantity: pEC50
comparator: <
numeric-readout: 4.20

compound: CC(=O)Nc1ccc(-c2nc3cc4cccnc4c(Cl)c3[nH]2)cc1
measured-quantity: pEC50
comparator: =
numeric-readout: 4.96

compound: N#CCn1nnc2cc3cccnc3c(Cl)c21
measured-quantity: pEC50
comparator: =
numeric-readout: 4.00

compound: CCc1nc2cc3cccnc3c(Cl)c2[nH]c1=O
measured-quantity: pEC50
comparator: =
numeric-readout: 5.19

compound: Clc1c2ncccc2cc2nc(-c3ccccc3)[nH]c12
measured-quantity: pEC50
comparator: =
numeric-readout: 5.40

compound: O=c1[nH]c2cc3cccnc3c(Cl)c2nc1Cc1ccccc1
measured-quantity: pEC50
comparator: =
numeric-readout: 5.59

compound: Nc1ccc(-c2nc3cc4cccnc4c(Cl)c3[nH]2)cc1
measured-quantity: pEC50
comparator: =
numeric-readout: 5.00

compound: c1cnc2cc3nccnc3cc2c1
measured-quantity: pEC50
comparator: <
numeric-readout: 4.00

compound: c1cnc2cc3[nH]nnc3cc2c1
measured-quantity: pEC50
comparator: <
numeric-readout: 4.00

compound: CC(=O)n1nnc2c(Cl)c3ncccc3cc21
measured-quantity: pEC50
comparator: <
numeric-readout: 4.52

compound: O=[N+]([O-])c1c2cccnc2c(Cl)c2[nH]nnc12
measured-quantity: pEC50
comparator: =
numeric-readout: 4.64

compound: O=C(CCl)Cn1nnc2cc3cccnc3c(Cl)c21
measured-quantity: pEC50
comparator: <
numeric-readout: 4.68

compound: Clc1ccc(-c2nc3cc4cccnc4cc3[nH]2)cc1
measured-quantity: pEC50
comparator: =
numeric-readout: 4.74

compound: O=c1[nH]c2cc3cccnc3c(Cl)c2nc1-c1ccccc1
measured-quantity: pEC50
comparator: =
numeric-readout: 4.96

compound: c1cnc2cc3[nH]cnc3cc2c1
measured-quantity: pEC50
comparator: <
numeric-readout: 4.00

compound: [O-][n+]1n[nH]c2c(Cl)c3ncccc3cc21
measured-quantity: pEC50
comparator: <
numeric-readout: 4.00

compound: Clc1c2ncccc2cc2nc(C3CCCCC3)[nH]c12
measured-quantity: pEC50
comparator: =
numeric-readout: 4.72

compound: O=[N+]([O-])c1c2cccnc2c(Cl)c2[nH]n[n+]([O-])c12
measured-quantity: pEC50
comparator: <
numeric-readout: 4.00

compound: O=c1[nH]c2cc3c(O)ccnc3c(Cl)c2nc1-c1ccccc1
measured-quantity: pEC50
comparator: =
numeric-readout: 4.00

# credit: ChEMBL document CHEMBL1938334
